Molecular target: NAD-dependent protein deacetylase sirtuin-1 (Homo sapiens)
Assay: Activation of N-terminal His6-tagged SIRT1 (156 to 664 amino acid residues) (unknown origin) expressed in Escherichia coli BL21(DE3) using ac-RHKKac-AMC as substrate at 50 uM after 45 mins by fluorimetric analysis relative to control
Please use 1 whenever max activation is not below 200%, and -1 whenever it is.

{"columns": ["LINE NOTATION", "CATEGORY LABEL"],
 "data": [
  ["O=C(N/N=C/c1cc(Br)c(O)c(Br)c1O)c1ccc2ccccc2c1", 1],
  ["O=C(Nc1ccccc1-c1cn2c(CN3CCNCC3)csc2n1)c1cnc2ccccc2c1", 1],
  ["O=C(N/N=C/c1cc(Br)c(O)c(Br)c1O)c1ccc2ncccc2c1", 1]
]}

Ask: Confirm if max activation reported for the compound Cc1ccc(C(=O)N/N=C/c2cc(Br)c(O)c(Br)c2O)cc1 is 200% or above.
Reply: -1

Ask: // repeat for O=C(N/N=C/c1cc(Br)c(O)c(Br)c1O)c1ccc(Cl)cc1 and report
Reply: -1
